# Tested Target: (S)-6-hydroxynicotine oxidase (Paenarthrobacter nicotinovorans)
# Sequence (O86101 whole entry): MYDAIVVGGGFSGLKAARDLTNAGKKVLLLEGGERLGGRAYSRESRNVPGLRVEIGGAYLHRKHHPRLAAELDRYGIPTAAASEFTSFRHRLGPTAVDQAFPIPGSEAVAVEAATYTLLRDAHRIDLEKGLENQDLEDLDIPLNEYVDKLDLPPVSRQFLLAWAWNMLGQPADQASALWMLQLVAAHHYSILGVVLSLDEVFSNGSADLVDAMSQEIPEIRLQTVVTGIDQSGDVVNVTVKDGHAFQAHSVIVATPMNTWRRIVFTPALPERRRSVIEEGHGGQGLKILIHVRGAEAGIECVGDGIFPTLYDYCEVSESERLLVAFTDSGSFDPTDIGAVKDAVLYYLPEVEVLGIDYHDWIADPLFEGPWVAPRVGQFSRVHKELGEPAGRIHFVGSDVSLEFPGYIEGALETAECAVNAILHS
pKd: −log10 of the molar value.
Measured pKd, listed per entry for reference.

# Molecule, Tested Target, pKd
records = [
    ("CN1CCC[C@H]1c1ccc(=O)[nH]c1 [(S)-6-hydroxynicotine]", "(S)-6-hydroxynicotine oxidase (Paenarthrobacter nicotinovorans)", 4.00),
    ("CN1CCC[C@H]1c1ccc(O)cc1 [(S)-4-(1-methylpyrrolidine-2-yl)phenol]", "(S)-6-hydroxynicotine oxidase (Paenarthrobacter nicotinovorans)", 2.70),
    ("O=c1ccc([C@@H]2CCCN2)c[nH]1 [(S)-6-hydroxynornicotine]", "(S)-6-hydroxynicotine oxidase (Paenarthrobacter nicotinovorans)", 3.52),
]

Taken from BindingDB's records for doi:10.1021/acs.biochem.5b01325.
